# protocol_summary: Solubility of the compound […]
# Format: physicochemical

- compound_structure: "Cc1ccc(O)c(CNCC23CC4CC(CC(C4)C2)C3)n1"
  solubility [µM]: 237
- compound_structure: "Oc1ccc(Cl)cc1CNCC12CC3CC(CC(C3)C1)C2"
  solubility [µM]: 43
- compound_structure: "COc1ccc(CNCC23CC4CC(CC(C4)C2)C3)c(O)c1"
  solubility [µM]: 446
- compound_structure: "Oc1c(F)cc(Br)cc1CNCC12CC3CC(CC(C3)C1)C2"
  solubility [µM]: 4
- compound_structure: "Cc1ccc(O)c(CNCC23CC4CC(CC(C4)C2)C3)c1"
  solubility [µM]: 97

Reference for the values: ChEMBL document CHEMBL3392977
